molecular target: gpH2R (Cavia porcellus, UniProt P47747); set-up: species or system guinea pig
Sequence (P47747 whole entry): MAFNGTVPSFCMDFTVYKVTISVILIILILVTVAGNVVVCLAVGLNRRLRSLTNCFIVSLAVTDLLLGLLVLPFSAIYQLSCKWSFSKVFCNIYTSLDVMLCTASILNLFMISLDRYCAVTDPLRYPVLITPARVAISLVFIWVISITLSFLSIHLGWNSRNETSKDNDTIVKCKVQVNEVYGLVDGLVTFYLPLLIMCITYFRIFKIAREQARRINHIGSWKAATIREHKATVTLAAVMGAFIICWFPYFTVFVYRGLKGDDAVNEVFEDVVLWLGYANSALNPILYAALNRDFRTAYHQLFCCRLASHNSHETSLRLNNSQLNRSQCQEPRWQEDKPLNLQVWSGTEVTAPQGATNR
Just a reminder that ties go to FALSE: only gpH2R Emax strictly below 0.9 counts as TRUE.

### Prompt Lab note: gpH2R Emax threshold 0.9. Does this compound come in strictly under it? CNC(=N)NCCCc1c[nH]cn1
### Response TRUE

### Prompt Hello, I'm reviewing records and need to know if gpH2R Emax of N=C(NCCCCCCCCNC(=N)NCCCc1cnc(N)s1)NCCCc1c[nH]cn1 is below 0.9. Could you check?
### Response FALSE

### Prompt Would you kindly verify if gpH2R Emax of CC(C)CNC(=N)NCCCc1c[nH]cn1 is strictly less than 0.9?
### Response TRUE

### Prompt Does the reported gpH2R Emax of the following compound sit strictly below 0.9? N=C(NCCCCCCCCNC(=N)NCCCc1cnc(N)s1)NCCCc1cnc(N)s1
### Response FALSE

### Prompt Is it true that gpH2R Emax reported for CCCCCCCCCCCCNC(=N)NCCCc1sc(N)nc1C is less than 0.9?
### Response TRUE

### Prompt Confirm or reject: gpH2R Emax of CCCCNC(=N)NCCCc1c[nH]cn1 lies strictly below 0.9
### Response TRUE

### Prompt hey, is gpH2R Emax for Cc1nc(N)sc1CCCNC(=N)NCCCCCCCCNC(=N)NCCCc1sc(N)nc1C lower than 0.9 or not?
### Response TRUE

### Prompt Dear colleague, could you confirm whether gpH2R Emax of N=C(NCCCCNC(=N)NCCCc1c[nH]cn1)NCCCc1c[nH]cn1 falls below 0.9? Thanks.
### Response FALSE

### Prompt Is it true that gpH2R Emax reported for CCCCCCCCCCCCNC(=N)NCCCn1ccnc1 is less than 0.9?
### Response TRUE

### Prompt Bench note: check whether CCNC(=N)NCCCc1c[nH]cn1 shows gpH2R Emax below 0.9
### Response TRUE

====

molecular target: hH2R (Homo sapiens); format: binding; details: hH2R pKi, [3H]tiotidine (Kd […], c = 10 nM); mean ± SEM
Sequence (P25021 whole entry): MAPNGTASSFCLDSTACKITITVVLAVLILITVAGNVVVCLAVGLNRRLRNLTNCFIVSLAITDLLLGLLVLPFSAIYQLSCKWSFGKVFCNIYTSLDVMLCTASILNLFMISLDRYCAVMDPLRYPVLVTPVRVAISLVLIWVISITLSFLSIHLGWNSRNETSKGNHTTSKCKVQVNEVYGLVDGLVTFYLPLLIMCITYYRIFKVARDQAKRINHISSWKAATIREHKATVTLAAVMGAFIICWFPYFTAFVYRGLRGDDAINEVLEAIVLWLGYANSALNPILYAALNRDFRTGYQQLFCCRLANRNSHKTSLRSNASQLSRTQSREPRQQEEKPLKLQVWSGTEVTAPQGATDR
Sequence (P63092 1-380 isoform P63092-2 partner): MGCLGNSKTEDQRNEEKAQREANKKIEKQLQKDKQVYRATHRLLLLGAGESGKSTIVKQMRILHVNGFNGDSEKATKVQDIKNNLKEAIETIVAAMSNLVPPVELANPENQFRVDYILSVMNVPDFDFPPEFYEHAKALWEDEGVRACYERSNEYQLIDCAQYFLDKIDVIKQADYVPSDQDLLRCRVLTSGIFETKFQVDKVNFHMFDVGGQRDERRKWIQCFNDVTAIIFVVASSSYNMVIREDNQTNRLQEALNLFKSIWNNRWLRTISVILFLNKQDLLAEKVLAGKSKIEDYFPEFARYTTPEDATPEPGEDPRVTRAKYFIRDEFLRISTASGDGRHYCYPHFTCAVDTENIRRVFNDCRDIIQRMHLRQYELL
Hi there, I'd appreciate the recorded Ki for every entry that follows.
Note: unit µM is implicit; provide only the numeric part.

Consider CCCCNC(=N)NCCCc1c[nH]cn1 . Its measured Ki is 0.776

Form: compound = CC(C)CNC(=N)NCCCc1c[nH]cn1 ; Ki = 0.759

Record CCCCCNC(=N)NCCCc1c[nH]cn1 , field Ki: 0.933

====

target: UniProtKB P47747; set-up: species or system guinea pig
Exercise: for every item that follows, state its recorded EC50.
Supply the numeric figure in nM, leaving out any unit text.

Summary line: CCCCNC(=N)NCCCc1c[nH]cn1 , UniProtKB P47747, reported EC50 = 832

Entry CC(C)CNC(=N)NCCCc1c[nH]cn1 under UniProtKB P47747 had EC50 of 1350

Measured EC50 (UniProtKB P47747), entry c1nc(CCCNC2=NCCCN2)c[nH]1 : 1510

====

I'd be grateful if you could share measured gpH2R Emax for these entries.
target: gpH2R (Cavia porcellus, UniProt P47747); parameters: species or system guinea pig
Field format: numeric only.

Reported gpH2R Emax of CCCCCCCCCCNC(=N)NCCCc1c[nH]cn1 [Compound 137] : 0.90

Per the record, N=C(NCCCCCCNC(=N)NCCCc1c[nH]cn1)NCCCc1c[nH]cn1 [Compound 55] has gpH2R Emax of 0.90

# gpH2R Emax (compound: Cc1nc(N)sc1CCCNC(=N)NCCCCCCCCNC(=N)NCCCc1c[nH]cn1 [Compound 61] ) is 0.91

Lab note: measured gpH2R Emax of CCCCCNC(=N)NCCCc1c[nH]cn1 [Compound 134] was 0.90
